What T/C was measured for each of the following?
System: L1210 leukemia ip in BDF1 mice, survival T/C
Assay: NCI In Vivo Anticancer Drug Screen. Data for tumor model L1210 Leukemia (intraperitoneal) in B6D2F1 (BDF1) mice
Conditions: endpoint: mean survival time; dose: 400.0 mg/kg/injection; schedule: Q04DX003 (ip); vehicle: saline; higher = longer survival
Toxic doses and inconclusive results are not listed.

List reported T/C for each of these compounds:
1. CN(C)C(C)(C)CO
2. O=c1[nH]ccn2cncc12
3. CC1(C)NC(=O)N(CN2CCN(CN3C(=O)NC(C)(C)C3=O)CC2)C1=O
4. O=C1CC(N2C(=O)C3CCCCC3C2=O)C(=O)N1 (stereo not given)
5. NCCc1ccc(N)cc1
6. CC(=O)N=C1CCCC1C#N (stereo not given)

RESULT:
101 % of control
106 % of control
113 % of control
97 % of control
101 % of control
100 % of control
